From: paper doi:10.1101/739813

# Measured on: pRab8a(GTP): Rab8a (Q67L, residues 1-181) phosphorylated at T72, GTP-bound (UniProt P61006)
# Sequence (P61006 1-181 Q67L): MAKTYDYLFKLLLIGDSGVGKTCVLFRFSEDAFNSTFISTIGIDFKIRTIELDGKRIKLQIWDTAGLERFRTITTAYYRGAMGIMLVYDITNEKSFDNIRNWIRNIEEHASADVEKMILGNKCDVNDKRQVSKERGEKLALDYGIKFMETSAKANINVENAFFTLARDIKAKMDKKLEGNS
# Assay name: ITC
Where no end group is shown, it is not given here.
Assay readout: Kd (µM)

# Binder, Assay readout, Quantity unit, Value reported
data = [
    ("His6-NRPRFTLQELRDVLQERNKLKSQLLVVQEELQCYKSG (peptide, UniProt Q969X0 129-165, looked up) [His6-RILPL2, phospho-Rab binding domain of RILPL2 (residues 129-165)]", "Kd", "µM", 3.3),
]
